- measuredTarget: 2-5A-dependent ribonuclease (Homo sapiens)
- Sequence (whole entry): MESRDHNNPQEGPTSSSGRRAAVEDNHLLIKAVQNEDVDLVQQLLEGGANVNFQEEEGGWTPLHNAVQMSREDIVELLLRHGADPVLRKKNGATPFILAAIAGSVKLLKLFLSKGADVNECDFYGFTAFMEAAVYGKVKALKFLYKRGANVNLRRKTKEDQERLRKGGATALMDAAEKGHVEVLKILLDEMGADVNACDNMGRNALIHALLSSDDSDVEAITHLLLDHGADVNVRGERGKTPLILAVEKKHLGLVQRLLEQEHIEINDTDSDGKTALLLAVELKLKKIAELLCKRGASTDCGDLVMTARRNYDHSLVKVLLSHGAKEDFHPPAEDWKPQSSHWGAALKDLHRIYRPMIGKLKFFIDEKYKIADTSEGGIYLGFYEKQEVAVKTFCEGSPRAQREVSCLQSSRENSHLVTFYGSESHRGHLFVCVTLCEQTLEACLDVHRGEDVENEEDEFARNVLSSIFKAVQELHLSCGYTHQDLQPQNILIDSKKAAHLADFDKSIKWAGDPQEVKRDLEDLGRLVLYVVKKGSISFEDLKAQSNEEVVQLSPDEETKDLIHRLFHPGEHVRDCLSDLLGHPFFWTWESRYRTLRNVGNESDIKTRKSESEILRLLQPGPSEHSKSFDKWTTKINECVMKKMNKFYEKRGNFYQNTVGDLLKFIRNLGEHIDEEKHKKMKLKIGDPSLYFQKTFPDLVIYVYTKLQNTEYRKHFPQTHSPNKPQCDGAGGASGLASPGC
- testProtocol: Antagonist activity at human RNase L expressed in Escherichia coli BL21 (DE3) cells assessed as RNA cleavage using Cy5-C11-rUU-C7-BHQ2 as substrate by FRET assay in presence of natural activator pAAAA
- Type: functional
Active and inactive are the calls of the source. The calls are words filed in the database; no cut-off is given here.
reportedEndpoint: inhibition

givenSmiles: Nc1ncnc2c1ncn2[C@@H]1O[C@H](COCP(=O)(O)O[C@@H]2[C@H](O)[C@@H](COP(=O)(O)O[C@@H]3[C@H](O)[C@@H](COP(=O)(O)O[C@H]4[C@H](O)[C@@H](COCP(=O)(O)O)O[C@H]4n4cnc5c(N)ncnc54)O[C@H]3n3cnc4c(N)ncnc43)O[C@H]2n2cnc3c(N)ncnc32)[C@@H](O)[C@@H]1O
measuredTarget: 2-5A-dependent ribonuclease (Homo sapiens)
inhibition: inactive
--
givenSmiles: Nc1ncnc2c1ncn2[C@@H]1O[C@H](COP(=O)(O)O[C@@H]2[C@@H](O)[C@@H](COCP(=O)(O)O[C@@H]3[C@@H](O)[C@@H](COCP(=O)(O)O[C@@H]4[C@@H](O)[C@@H](COCP(=O)(O)O)O[C@H]4n4cnc5c(N)ncnc54)O[C@H]3n3cnc4c(N)ncnc43)O[C@H]2n2cnc3c(N)ncnc32)[C@@H](O)[C@H]1O
measuredTarget: 2-5A-dependent ribonuclease (Homo sapiens)
inhibition: inactive
--
givenSmiles: Nc1ncnc2c1ncn2[C@@H]1O[C@H](COCP(=O)(O)O[C@@H]2[C@H](O)[C@@H](COP(=O)(O)O[C@H]3[C@H](O)[C@@H](COCP(=O)(O)O[C@H]4[C@H](O)[C@@H](COCP(=O)(O)O)O[C@H]4n4cnc5c(N)ncnc54)O[C@H]3n3cnc4c(N)ncnc43)O[C@H]2n2cnc3c(N)ncnc32)[C@@H](O)[C@@H]1O
measuredTarget: 2-5A-dependent ribonuclease (Homo sapiens)
inhibition: inactive
--
givenSmiles: Nc1ncnc2c1ncn2[C@@H]1O[C@H](COCP(=O)(O)O[C@@H]2[C@H](O)[C@@H](COP(=O)(O)O[C@@H]3[C@@H](O)[C@@H](COCP(=O)(O)O[C@@H]4[C@@H](O)[C@@H](COCP(=O)(O)O)O[C@H]4n4cnc5c(N)ncnc54)O[C@H]3n3cnc4c(N)ncnc43)O[C@H]2n2cnc3c(N)ncnc32)[C@H](O)[C@H]1O
measuredTarget: 2-5A-dependent ribonuclease (Homo sapiens)
inhibition: inactive
--
givenSmiles: Nc1ncnc2c1ncn2[C@@H]1O[C@H](COCP(=O)(O)O[C@@H]2[C@H](O)[C@@H](COP(=O)(O)O[C@@H]3[C@H](O)[C@@H](COP(=O)(O)O[C@@H]4[C@H](O)[C@@H](COCP(=O)(O)O)O[C@H]4n4cnc5c(N)ncnc54)O[C@H]3n3cnc4c(N)ncnc43)O[C@H]2n2cnc3c(N)ncnc32)[C@@H](O)[C@H]1O
measuredTarget: 2-5A-dependent ribonuclease (Homo sapiens)
inhibition: inactive
--
givenSmiles: Nc1ncnc2c1ncn2[C@@H]1O[C@H](COP(=O)(O)O[C@@H]2[C@H](O)[C@@H](COP(=O)(O)O[C@@H]3[C@H](O)[C@@H](COCP(=O)(O)O[C@@H]4[C@H](O)[C@@H](COCP(=O)(O)O)O[C@H]4n4cnc5c(N)ncnc54)O[C@H]3n3cnc4c(N)ncnc43)O[C@H]2n2cnc3c(N)ncnc32)[C@@H](O)[C@H]1O
measuredTarget: 2-5A-dependent ribonuclease (Homo sapiens)
inhibition: inactive

Query compound follows.
Sample Nc1ncnc2c1ncn2[C@@H]1O[C@H](COCP(=O)(O)O[C@@H]2[C@@H](O)[C@@H](COCP(=O)(O)O[C@@H]3[C@H](O)[C@@H](COP(=O)(O)O[C@@H]4[C@H](O)[C@@H](COP(=O)(O)O)O[C@H]4n4cnc5c(N)ncnc54)O[C@H]3n3cnc4c(N)ncnc43)O[C@H]2n2cnc3c(N)ncnc32)[C@H](O)[C@H]1O — what was its inhibition?
inactive
